The origin of these recorded values is patent US20250368742A1.

Each entry below carries its recorded Kd.
# Tested target: T1, MICA008-ECD-HISAvi (human)
# T1 construct: Two sources under one name in the two kinetic assays; also called MICA008 polypeptide
# T1 chain: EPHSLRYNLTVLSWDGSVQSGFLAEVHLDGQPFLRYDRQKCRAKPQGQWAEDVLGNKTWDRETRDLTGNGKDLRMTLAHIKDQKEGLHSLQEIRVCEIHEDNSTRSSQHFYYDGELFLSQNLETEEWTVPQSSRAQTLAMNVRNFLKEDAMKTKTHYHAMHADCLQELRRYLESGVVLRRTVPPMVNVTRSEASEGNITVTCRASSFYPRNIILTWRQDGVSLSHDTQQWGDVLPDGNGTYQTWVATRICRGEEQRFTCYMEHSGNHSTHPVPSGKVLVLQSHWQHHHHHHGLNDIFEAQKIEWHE
# Assay explanation: BLI (GatorPrime); antibody on anti-hIgG Fc probe, monomeric antigen in solution;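 also: binding kinetics of anti-MICA/B antibodies measured by biolayer interferometry, with dissociation followed for about 10 min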
Give a bare numeral; the unit pM is implied.

A selection of reference data follows.
{"Binder": "3F9 (antibody, human IgG1, kappa, V domains shown, also called benchmark 3F9) VH: QVQLVESGGGLVKPGGSLRLSCAASGFTFSNYAMSWIRQAPGKGLEWVSYISPGGDYIYYADSVKGRFTISRDNAKNSLYLQMNSLRAEDTAVYYCTTDRRHYGSYAMDYWGQGTLVTVSS VL: DIVMTQSPLSLPVTPGEPASISCRSSKSLLHSNLNTYLYWFLQKPGQSPQILIYRMSNLASGVPDRFSGSGSGTAFTLKISRVEAEDVGVYYCMQHLEYPFTFGPGTKLEIKR", "Uom": "pM", "Kd": 295}
{"Binder": "1D5 (antibody, human IgG1, kappa, V domains shown, also called ID5) VH: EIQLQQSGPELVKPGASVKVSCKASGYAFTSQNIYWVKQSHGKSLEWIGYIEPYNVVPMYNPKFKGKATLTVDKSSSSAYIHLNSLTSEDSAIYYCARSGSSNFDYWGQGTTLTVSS VL: EIILTQSPTTMAASPGEKITITCSASSSISSHYLHWYQQKSGFSPKLLIYRTSNLASGVPARFSGSGSGTSYSLTIGTMEAEDVATYYCQQGSSLPLTFGAGTKVEIKR", "Uom": "pM", "Kd": 26}
{"Binder": "B10G5 (antibody, human IgG1, kappa, V domains shown, also called B10G5-2; P2B10G5) VH: EVQLEESGPGLVKPSQSLSLTCTVTGYSITSDYAWNWIRQFPGNKLEWMGYISYSGSTNYNPSLKSRISITRDTSKNQFFLQLNSVITEDTATYYCARGGTYFDYWGQGTTLTVSS VL: DIVLTQTTSYLSVSLGGRVTIACKASAHINNWLAWYQQKPGNAPRLLISDATSLETGVPSRFSGSGSGKDYTLSITSLQTEDVATYYCQHYWSTPWTFGGGTKLEIKR", "Uom": "pM", "Kd": 625}

Shifting focus to the binder that follows.
input: I have this binder here, 13A9 (antibody, human IgG1, kappa, V domains shown) VH: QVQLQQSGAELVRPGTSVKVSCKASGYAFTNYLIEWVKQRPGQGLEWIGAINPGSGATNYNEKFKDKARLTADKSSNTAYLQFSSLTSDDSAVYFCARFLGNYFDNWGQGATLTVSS VL: DIQMTQSPASLSASVGETVTITCRASGNIHSYLAWYQQKQGKSPQLLVYYAETLADGVPSRFSGRGSGTQYSLKINSLQPEDFGSYFCQQFWTTPYTFGGGTKVEIKR , and I need its recorded Kd.
output: 504
